assay explanation: Phase 1b study in female adults with cystitis, plasma PK
Type: in vivo, human
recorded conditions: female, human, plasma, intravenous, 200 mg, Day 1; 200 mg IV, 300 mg po (n = 11); mean; read-out: AUC0-24
Protocol: According to the study design, a randomized (1:1:1), open-label, parallel designed Phase 1b study comparing 3 dosing regimens of Compound 1 (9-[(2,2-dimethyl-propyl amino)-methyl-minocycline) in the treatment of female adults with cystitis was conducted. […] Blood samples were collected and analyzed for Compound 1 concentration at the following times. […]
recorded metric: AUC(0-t) (ng·h/mL)
A number alone suffices; assume ng·h/mL.

I'd like to know its AUC(0-t). The compound in question is CN(C)c1cc(CNCC(C)(C)C)c(O)c2c1C[C@H]1C[C@H]3[C@H](N(C)C)C(O)=C(C(N)=O)C(=O)[C@@]3(O)C(O)=C1C2=O
16000
